FYI, the data here is from PubChem BioAssay AID2060337.

List of viability, T/C values.
Tested on: 832693-133-R-J1-PDC multi-cell spheroids, viability
method_description: Anticancer human tumor 832693-133-R-J1-PDC patient-derived head and neck squamous carcinoma cell line growth inhibition [IpAb]
details: second compound 0.1 µM; first compound 0.001 µM; stronger effect = lower value

molecule: CC(C)n1nc(-c2ccc3oc(N)nc3c2)c2c(N)ncnc21 + CCN1CCN(Cc2ccc(Nc3ncc(F)c(-c4cc(F)c5nc(C)n(C(C)C)c5c4)n3)nc2)CC1
unit_spec: %
viability, T/C: 56
--
molecule: Cn1ncnc1[C@H]1c2n[nH]c(=O)c3cc(F)cc(c23)N[C@@H]1c1ccc(F)cc1 + CCN1CCN(Cc2ccc(Nc3ncc(F)c(-c4cc(F)c5nc(C)n(C(C)C)c5c4)n3)nc2)CC1
unit_spec: %
viability, T/C: 58
--
molecule: Cn1ncnc1[C@H]1c2n[nH]c(=O)c3cc(F)cc(c23)N[C@@H]1c1ccc(F)cc1 + CC(C)NCC(C(=O)N1CCN(c2ncnc3c2C(C)CC3O)CC1)c1ccc(Cl)cc1
unit_spec: %
viability, T/C: 94
--
molecule: CC(C)n1nc(-c2ccc3oc(N)nc3c2)c2c(N)ncnc21 + CC(C)NCC(C(=O)N1CCN(c2ncnc3c2C(C)CC3O)CC1)c1ccc(Cl)cc1
unit_spec: %
viability, T/C: 90.7

----------
System: 832693-133-R-J1-PDC multi-cell spheroids, viability
method_description: Anticancer human tumor 832693-133-R-J1-PDC cell line growth inhibition [IpAb];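 note: spheroids exposed to the drugs for one week before the viability readout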
details: curve of first compound; second compound 3.16 µM
Method: Combinatorial screen of targeted agents with ipatasertib and abemaciclib in multi-cell type tumor spheroids […] Compounds. […] If the clinical Cmax for an agent had not been determined, the highest concentration tested was 10 microM. NCI60 Cell Culture. […] The optimal seeding densities for each of the cell lines at each time point assessed were determined prior to performing the concentration response studies. […]
pIC50: −log10 of the molar value.

compound: CCCS(=O)(=O)Nc1ccc(F)c(C(=O)c2c[nH]c3ncc(-c4ccc(Cl)cc4)cc23)c1F + CC(C)NCC(C(=O)N1CCN(c2ncnc3c2C(C)CC3O)CC1)c1ccc(Cl)cc1
inequality_operator: <
pIC50: 5.00
--
compound: Cn1ncc(Cl)c1-c1cc(C(=O)NC(CN)Cc2cccc(F)c2)sc1Cl (stereo not drawn) + CC(C)NCC(C(=O)N1CCN(c2ncnc3c2C(C)CC3O)CC1)c1ccc(Cl)cc1
inequality_operator: =
pIC50: 5.38
--
compound: C=CCn1c(=O)c2cnc(Nc3ccc(N4CCN(C)CC4)cc3)nc2n1-c1cccc(C(C)(C)O)n1 + CC(C)NCC(C(=O)N1CCN(c2ncnc3c2C(C)CC3O)CC1)c1ccc(Cl)cc1
inequality_operator: >
pIC50: 7.50
--
compound: C=CC(=O)N1CCN(c2nc(=O)n(-c3c(C)ccnc3C(C)C)c3nc(-c4c(O)cccc4F)c(F)cc23)C(C)C1 (stereo not drawn) + CC(C)NCC(C(=O)N1CCN(c2ncnc3c2C(C)CC3O)CC1)c1ccc(Cl)cc1
inequality_operator: =
pIC50: 6.51
--
compound: Cc1nc(NC(=O)N2CCCC2C(N)=O)sc1-c1ccnc(C(C)(C)C(F)(F)F)c1 (stereo not drawn) + CC(C)NCC(C(=O)N1CCN(c2ncnc3c2C(C)CC3O)CC1)c1ccc(Cl)cc1
inequality_operator: >
pIC50: 7.50
--
compound: COc1c(OCCCN2CCOCC2)ccc2c3n(c(=NC(=O)c4cnc(N)nc4)nc12)CCN3 + CC(C)NCC(C(=O)N1CCN(c2ncnc3c2C(C)CC3O)CC1)c1ccc(Cl)cc1
inequality_operator: >
pIC50: 8.50
--
compound: CC(=O)c1c(C)c2cnc(Nc3ccc(N4CCNCC4)cn3)nc2n(C2CCCC2)c1=O + CC(C)NCC(C(=O)N1CCN(c2ncnc3c2C(C)CC3O)CC1)c1ccc(Cl)cc1
inequality_operator: =
pIC50: 8.77
--
compound: Cn1cnc2c(F)c(Nc3ccc(Br)cc3Cl)c(C(=O)NOCCO)cc21 + CC(C)NCC(C(=O)N1CCN(c2ncnc3c2C(C)CC3O)CC1)c1ccc(Cl)cc1
inequality_operator: >
pIC50: 8.02
--
compound: Cn1ncnc1[C@H]1c2n[nH]c(=O)c3cc(F)cc(c23)N[C@@H]1c1ccc(F)cc1 + CC(C)NCC(C(=O)N1CCN(c2ncnc3c2C(C)CC3O)CC1)c1ccc(Cl)cc1
inequality_operator: =
pIC50: 8.09
--
compound: Cn1nccc1Nc1nccc(-c2ccn(C(CO)c3ccc(Cl)c(F)c3)c(=O)c2)n1 (stereo not drawn) + CC(C)NCC(C(=O)N1CCN(c2ncnc3c2C(C)CC3O)CC1)c1ccc(Cl)cc1
inequality_operator: =
pIC50: 7.33
--
compound: CC(C)n1nc(-c2ccc3oc(N)nc3c2)c2c(N)ncnc21 + CC(C)NCC(C(=O)N1CCN(c2ncnc3c2C(C)CC3O)CC1)c1ccc(Cl)cc1
inequality_operator: <
pIC50: 7.00
--
compound: CC(C)(C)c1cnc(CSc2cnc(NC(=O)C3CCNCC3)s2)o1 + CC(C)NCC(C(=O)N1CCN(c2ncnc3c2C(C)CC3O)CC1)c1ccc(Cl)cc1
inequality_operator: =
pIC50: 6.88
--
compound: CC1(C)CCC(CN2CCN(c3ccc(C(=O)NS(=O)(=O)c4ccc(NCC5CCOCC5)c([N+](=O)[O-])c4)c(Oc4cnc5[nH]ccc5c4)c3)CC2)=C(c2ccc(Cl)cc2)C1 + CC(C)NCC(C(=O)N1CCN(c2ncnc3c2C(C)CC3O)CC1)c1ccc(Cl)cc1
inequality_operator: =
pIC50: 5.43
